Molecular target: Cytoplasmic tyrosine-protein kinase BMX (Homo sapiens)
Sequence (P51813 whole entry): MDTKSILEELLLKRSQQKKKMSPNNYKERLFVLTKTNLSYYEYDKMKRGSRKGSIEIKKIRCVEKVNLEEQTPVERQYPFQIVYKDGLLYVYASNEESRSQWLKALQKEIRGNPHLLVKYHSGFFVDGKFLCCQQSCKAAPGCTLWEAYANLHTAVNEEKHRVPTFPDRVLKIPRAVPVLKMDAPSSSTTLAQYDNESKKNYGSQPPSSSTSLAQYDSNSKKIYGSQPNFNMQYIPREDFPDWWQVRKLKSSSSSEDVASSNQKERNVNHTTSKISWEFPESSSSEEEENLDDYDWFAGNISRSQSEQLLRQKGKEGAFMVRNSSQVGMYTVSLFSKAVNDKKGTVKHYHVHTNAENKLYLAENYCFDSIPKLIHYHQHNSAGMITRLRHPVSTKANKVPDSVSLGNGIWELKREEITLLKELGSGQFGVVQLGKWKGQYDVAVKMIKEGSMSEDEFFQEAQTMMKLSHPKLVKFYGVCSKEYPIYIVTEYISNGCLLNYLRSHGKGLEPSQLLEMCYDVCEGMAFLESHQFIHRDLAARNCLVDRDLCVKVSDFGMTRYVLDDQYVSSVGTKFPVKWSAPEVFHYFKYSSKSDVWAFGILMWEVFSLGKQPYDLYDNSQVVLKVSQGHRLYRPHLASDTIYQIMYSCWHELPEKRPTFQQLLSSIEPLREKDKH
pIC50: −log10 of the molar value.
test.readout: pIC50

Examples with answers:
{"columns": ["chemical.smiles", "pIC50"],
 "data": [
  ["COc1cc(C(=O)Nc2cc(C(F)(F)F)ccn2)ccc1-c1nc([C@@H]2CC[C@H]3CCC(=O)N3C2)n2ccnc(N)c12", 7.72],
  ["Nc1nccn2c([C@@H]3CC[C@H]4COC(=O)N4C3)nc(-c3ccc(C(=O)Nc4cc(C(F)(F)F)ccn4)cc3)c12", 7.89]
]}

[I] Nc1nccn2c([C@@H]3CC[C@H]4CCC(=O)N4C3)nc(-c3ccc(C(=O)Nc4cc(C(F)(F)F)ccn4)cc3)c12
[II] CC1(C)OC(=O)N2C[C@H](c3nc(-c4ccc(C(=O)Nc5cc(C(F)(F)F)ccn5)cc4)c4c(N)nccn34)CC[C@H]21
input: Of I and II , which one carries the higher reported pIC50? Lab note: record the label of whichever item you select.
output: II
(II: 8.25, I: 7.96)
